Each recorded value in this set is attributed to ChEMBL document CHEMBL3352086.

TESTED TARGET: 2-amino-4-hydroxy-6-hydroxymethyldihydropteridin e pyrophosphokinase (Staphylococcus aureus, UniProt X5EH84)
PROTOCOL TEXT: Binding affinity to Staphylococcus aureus recombinant HPPK by surface plasmon resonance analysis
READOUT: Kd (µM)

# COMPOUND, Kd, µM
rows = [
    ("N#Cc1ccc(CSc2nc3nc(N)[nH]c(=O)c3[nH]2)cc1", 11.1),
]

A. Nc1nc2[nH]c(SCc3ccccc3)nc2c(=O)[nH]1
B. CC(=O)CSc1nc2c(=O)[nH]c(N)nc2[nH]1
Lab note: check whether A or B shows the higher recorded Kd. Mark your selection by writing its label.
B

1. COc1ccccc1C(=O)CSc1nc2nc(N)[nH]c(=O)c2[nH]1
2. CC(Sc1nc2nc(N)[nH]c(=O)c2[nH]1)C(=O)c1ccccc1 (stereo unspecified)
Select the item with the higher value of Kd from the options 1 and 2 listed. // output: label of the selected item
1
(1: 21.7 µM, 2: 7.5 µM)
